Tested on: rats subjected to adrenalectomy (granuloma around implanted cotton wads)
Assay: granulom test (cotton-pellet test) on rats subjected to adrenalectomy: granuloma growth, thymus weight, body weight increase
Format: in vivo, rat (Sprague-Dawley)
Details: rat, in vivo
From the text: In the following this active stereoisomeric component will always be designated B. As regards the steroids referred to in connection with the present invention the stereoisomeric mixture as well as the individual stereoisomeric components A and B have been investigated with regard to antiinflammatory activity in granulom test on rats subjected to adrenalectomy. The experimental procedure used corresponds largely to that described by G. Engelhardt: Arzneimittel-Forschung, 13, p. 588, 1963. […]
Please respond with reported Therapeutic ratio body weight/granuloma for every item in the list.

Looking up CCCC1O[C@@H]2C[C@H]3[C@@H]4C[C@H](F)C5=CC(=O)C=C[C@]5(C)[C@@]4(F)[C@@H](O)C[C@]3(C)[C@]2(C(=O)COC(=O)c2cc3ccccc3o2)O1 (single isomer, unassigned) [25 A] , I see its Therapeutic ratio body weight/granuloma listed as > 6.7

Entry CCCC1O[C@@H]2C[C@H]3[C@@H]4CCC5=CC(=O)C=C[C@]5(C)[C@@]4(F)[C@@H](O)C[C@]3(C)[C@]2(C(=O)COC(=O)c2cc3ccccc3o2)O1 (single isomer, unassigned) [20 A] , Therapeutic ratio body weight/granuloma reported as > 16.7

Entry CCCCC(=O)OCC(=O)[C@@]12OC(CCC)O[C@@H]1C[C@H]1[C@@H]3CCC4=CC(=O)C=C[C@]4(C)[C@@]3(F)[C@@H](O)C[C@@]12C (single isomer, unassigned) [22 A] ; Therapeutic ratio body weight/granuloma = > 11.0

The measured Therapeutic ratio body weight/granuloma associated with CCCC1O[C@@H]2C[C@H]3[C@@H]4CCC5=CC(=O)C=C[C@]5(C)[C@@]4(F)[C@@H](O)C[C@]3(C)[C@]2(C(=O)COC(=O)c2cc3ccccc3o2)O1 (single isomer, unassigned) [20 B] reads > 1.7

Sure, the documented Therapeutic ratio body weight/granuloma for CCCC1O[C@@H]2C[C@H]3[C@@H]4C[C@H](F)C5=CC(=O)C=C[C@]5(C)[C@@]4(F)[C@@H](O)C[C@]3(C)[C@]2(C(=O)COC(=O)c2cc3ccccc3o2)O1 (single isomer, unassigned) [25 B] is > 2.9

// field: Therapeutic ratio body weight/granuloma; key: CCCC1O[C@@H]2C[C@H]3[C@@H]4CCC5=CC(=O)C=C[C@]5(C)[C@H]4[C@@H](O)C[C@]3(C)[C@]2(C(=O)COC(C)=O)O1 (single isomer, unassigned) [27 B] ; value = > 11.7

Given item CCCCC(=O)OCC(=O)[C@@]12OC(C)O[C@@H]1C[C@H]1[C@@H]3CCC4=CC(=O)C=C[C@]4(C)[C@@]3(F)[C@@H](O)C[C@@]12C (single isomer, unassigned) [18 A] , the value recorded as its Therapeutic ratio body weight/granuloma is > 11.0
